Values from the Human Domainome abundance scans (Beltran et al. 2025)

B1: 1-phosphatidylinositol 4,5-bisphosphate phosphodiesterase gamma-2, residues 772 to 827; numbered along this chain, P16885 (parent)
chain: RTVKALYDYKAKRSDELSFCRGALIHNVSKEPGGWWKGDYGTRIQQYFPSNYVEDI

# Variants of: B1
# ASSAY INFO: abundance fitness (aPCA) (normalised: wild type 0, dead -1); higher = more abundant; growth selection in yeast, the domain comes from the species named
# REPORTED CONDITIONS: Homo sapiens

VARIANT CODE	abundance fitness
A23V	-0.296
E54Y	-0.38
Y47R	0.076
D39A	-1.01
Y40M	-0.336
L24R	-0.299
E31T	0.141
Y52L	0.026
T2S	-0.089
D55G	-0.314
K4S	-0.514
N27C	-0.722
Q46E	-0.684
P32C	-0.275
K30R	-0.05
G22T	-0.872
Y52M	0.045
V53L	-0.876
F19L	-0.779
K10S	-0.008
G33K	-0.781
G41E	-0.117
